Attribution: patent US20240101668A1

Target: T1, huCLL1-Q244-Avi-Tev-His (human, UniProt Q5QGZ9 65-265)
T1 construct: extracellular domain; also called CLL-1 K244Q
T1 sequence (looked up): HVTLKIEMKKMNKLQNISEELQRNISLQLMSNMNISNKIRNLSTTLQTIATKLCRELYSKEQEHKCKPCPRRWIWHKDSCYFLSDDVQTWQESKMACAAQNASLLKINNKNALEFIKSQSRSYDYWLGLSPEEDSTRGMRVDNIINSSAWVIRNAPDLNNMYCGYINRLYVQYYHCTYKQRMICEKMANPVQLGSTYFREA
Test: BLI

[
  {
    "BINDER": "Polypeptide No. 188 (scFv, V domains shown, scFv) VH: EVQLLESGGGLVQPGGSLRLSCAASGFTFSSYGMHWVRQAPGKGLEWVSYTSSSSSTIYYADSVKGRFTISRDNSKNTLYLQMNSLRAEDTAVYYCARGNVGDNWNDDEAFLGWGQGTLVTVSS VL: DIQMTQSPSSLSASVGDRVTITCQASQDISNYLNWYQQKPGKAPKLLIYDASNLETGVPSRFSGSGSGTDFTLTISSLQPEDFATYYCQQTYDTPYTFGQGTKLEIKR",
    "binding result": "binds"
  },
  {
    "BINDER": "Polypeptide No. 146 (scFv, V domains shown, scFv) VH: QVQLVQSGAEVKKPGASVKVSCKASGYTFSGHYMHWVRQAPGQGLEWMGWIDPNSGGTNYAQKFQGRVTMTRDTSTSTVYMELSSLRSEDTAVYYCARDYPFYGDNDAFDIWGQGTTVTVSS VL: DIQMTQSPSSLSASVGDRVTITCRVSQGISSYLNWYQQKPGKAPKLLIYEASSLESGVPSRFSGSGSGTDFTLTISSLQPEDFATYYCQQSYSIPFTFGPGTKVDIKR",
    "binding result": "binds"
  },
  {
    "BINDER": "Polypeptide No. 161 (scFv, V domains shown, scFv) VH: QVQLVQSGAEVKKPGASVKVSCKASGYTFTSYDINWVRQAPGQGLEWMGMINPNSGGTSYAQKFQGRVTMTRDTSTSTVYMELSSLRSEDTAVYYCARELLGESFDYWGQGTLVTVSS VL: DIQMTQSPSSLSASVGDRVTITCRASQGISSYLAWYQQKPGKAPKLLIYGASILQSGVPSRFSGSGSGTDFTLTISSLQPEDFATYYCQQSYSTSFTFGPGTKVDIKR",
    "binding result": "binds"
  },
  {
    "BINDER": "Polypeptide No. 169 (scFv, V domains shown, scFv) VH: QVQLVQSGAEVKKPGASVKVSCKASGYTFTNDYIHWVRQAPGQGLEWMGWMSPNSGKTGFAQKFQGRVTMTRDTSTSTVYMELSSLRSEDTAVYYCAKDNSSGWYFDLWGRGTLVTVSS VL: DIQMTQSPSSLSASVGDRVTITCRVSQGISSYLAWYQQKPGKAPKLLIYDASNLETGVPSRFSGSGSGTDFTLTISSLQPEDFATYYCQQYDTLPITFGQGTRLEIKR",
    "binding result": "binds"
  },
  {
    "BINDER": "Polypeptide No. 157 (scFv, V domains shown, scFv) VH: QVQLVQSGAEVKKPGASVKVSCKASGYTFSDYYIHWVRQAPGQGLEWMGIINPSGGSTSYAQKFQGRVTMTRDTSTSTVYMELSSLRSEDTAVYYCARGMTDDAFDIWGQGTMVTVSS VL: DIQMTQSPSSLSASVGDRVTITCRASQGISSWLAWYQQKPGKAPKLLIYDASNLETGVPSRFSGSGSGTDFTLTISSLQPEDFATYYCQQTYAIPLTFGGGTKLEIKR",
    "binding result": "binds"
  },
  {
    "BINDER": "Polypeptide No. 153 (scFv, V domains shown, scFv) VH: QVQLVQSGAEVKKPGASVKVSCKASGGAFSSYALSWVRQAPGQGLEWMGWMNPNSGNTGYAQKFQGRVTMTRDTSTSTVYMELSSLRSEDTAVYYCAADWMIGGDAFDIWGQGTTVTVSS VL: DIQMTQSPSSLSASVGDRVTITCRASQSISSWLAWYQQKPGKAPKLLIYDASRLQSGVPSRFSGSGSGTDFTLTISSLQPEDFATYYCQQSYGIPLTFGGGTKVEIKR",
    "binding result": "binds"
  },
  {
    "BINDER": "Polypeptide No. 152 (scFv, V domains shown, scFv) VH: QVQLVQSGAEVKKPGASVKVSCKASGGTFSTNAISWVRQAPGQGLEWMGWMNPNSGNTGYAQKFQGRVTMTRDTSTSTVYMELSSLRSEDTAVYYCAKEDYGGNFDYWGQGTLVTVSS VL: DIQMTQSPSSLSASVGDRVTITCRASQSIGPWLAWYQQKPGKAPKLLIYDASNLQAGVPSRFSGSGSGTDFTLTISSLQPEDFATYYCQQSHSLPLTFGPGTKVDIKR",
    "binding result": "binds"
  },
  {
    "BINDER": "Polypeptide No. 190 (scFv, V domains shown, scFv) VH: EVQLLESGGGLVQPGGSLRLSCAASGFTFSSSWMHWVRQAPGKGLEWVSTINTNGDAAYYADSVKGRFTISRDNSKNTLYLQMNSLRAEDTAVYYCARDTVLDDYGDYDDYGMDVWGQGTTVTVSS VL: EIVMTQSPATLSVSPGERATLSCRASQSVSSSYLAWYQQKPGQAPRLLIYGASTRAAGIPARFSGSGSGTEFTLTISSLQSEDFAVYYCQQYGSSPFTFGPGTKVDIKR",
    "binding result": "binds"
  },
  {
    "BINDER": "Polypeptide No. 144 (scFv, V domains shown, scFv) VH: QVQLVQSGAEVKKPGASVKVSCKASGYTFTAYYMHWVRQAPGQGLEWMGIIDPSGGSTSYAQQFQGRVTMTRDTSTSTVYMELSSLRSEDTAVYYCARGDYGDYHTLWGQGTLVTVSS VL: DIQMTQSPSSLSASVGDRVTITCRASQGISSYLAWYQQKPGKAPKLLIYDASSLQSGVPSRFSGSGSGTDFTLTISSLQPEDFATYYCQQSYSTPITFGPGTKVDIKR",
    "binding result": "binds"
  }
]
